System: UACC-62 melanoma
Experiment: NCI tumour cell line growth inhibition, 48 h
Observed Property: GI50

CC(C)[C@H](CO)Nc1nc(Nc2ccc(C(=O)NCCNS(=O)(=O)c3cccc4c(N(C)C)cccc34)c(Cl)c2)c2ncn(C(C)C)c2n1; 3.4 µM
CCC(CO)Nc1nc(NCc2ccccc2O)c2ncn(C(C)C)c2n1 (stereo unspecified); 2.3 µM
Cc1cc(S(N)(=O)=O)c(S/C(CC(C)C)=N\Nc2ccc([N+](=O)[O-])cc2)cc1Cl; 3.13 µM
O=C1NC(O)C(c2c[nH]c3ccccc23)=C1c1c[nH]c2ccccc12 (stereo unspecified); 8.01 µM

[Q] Let me know recorded GI50 for NC(N)=N/N=C\c1cccc(OCc2ccccc2)c1 , thanks.
[A] 1.67 µM

[Q] Let me know recorded GI50 for Cn1c(/C=C(\C#N)c2ccccc2)nc2c(N3CCOCC3)nc(Cl)nc21 , thanks.
[A] 1.19 µM
